- System: NCI-H522 lung
- experiment: NCI tumour cell line growth inhibition, 48 h
endpoint.label: log10(TGI) (log10 of the value in µM)

compound	experimental.result
Cc1cc(O)ccc1O	1.27
O=C1c2ccccc2C(=O)c2c1oc(=O)c1ccccc21	0.99
Cc1cc(NS(=O)(=O)c2ccc(NC(=O)c3cccc4cc5ccccc5nc34)cc2)no1	1.53
NC(N)=NS(=O)(=O)c1ccc(Nc2c3ccccc3nc3c(C(=O)NC(CO)(CO)CO)cccc23)cc1	1.49
CCN(CC)CCNc1ccc2ncn3c4c(OC)cccc4c(=O)c1c23	1.32
COc1cc(/C=C/C(=O)C(C(=O)/C=C/c2ccc(OC(=O)CCNc3nnc(C)s3)c(OC)c2)C(=O)CCNc2nnc(C)s2)ccc1OC(=O)CCNc1nnc(C)s1	0.89
CC(C)/C(Cl)=N\OC(=O)Nc1ccc(F)c([N+](=O)[O-])c1	0.39
CN(C)CC(C)(C)C(/C=C/c1ccccc1)=N\Nc1ccccc1	1.38
COCC(=O)OC1CCn2c1nc1c2C(=O)C(C)=C(NC(C)=O)C1=N (stereo not drawn)	1.33
COc1cc(/C=C/c2sc3ccccc3[n+]2C)ccc1N(C)C	1.20
COC1=CC(=O)c2c(O)ccc(O)c2C1=O	1.41
CCN(CC)c1nc(N(C)C)c2ccc(OC)cc2n1	1.48
CCCC(=O)Nc1cc([N+](=O)[O-])c([N+](=O)[O-])cc1OC	1.44
O=C1N(CN2CCOCC2)CN(CN2CCOCC2)C(=O)N1Cc1ccccc1	1.46
CCOC(=O)NC(NNc1ccc([N+](=O)[O-])cc1[N+](=O)[O-])(C(F)(F)F)C(F)(F)F	1.89
Cn1ccnc1C(=O)/C=C/c1ccc(C(=O)Nc2ccccc2O)cc1	0.74
Cc1ccc(NSc2ccccc2[N+](=O)[O-])cc1	1.13
COC(=O)c1cc(-c2ccc(-c3ccc(O)cc3)cc2)cc(-c2ccc(-c3ccc(O)cc3)cc2)c1	0.94
O=C1Nc2ccccc2/C1=C/c1ccccc1	1.53
COC(=O)C1=COC2OC3/C(=C\c4ccc(O)c(OC)c4)C(=O)OC34C=CC1C24 (stereo not drawn)	1.46
Cn1cnc([N+](=O)[O-])c1SC1=NCCS1	1.62

These measurements were taken from PubChem BioAssay (NCI).
